# tested_system: human muscarinic acetylcholine M3 receptor (Homo sapiens, UniProt P20309)
# Construct: expressed in transfected cells; host or cells: CHO-K1 (Chinese Hamster Ovary) cell membranes
# Sequence (P20309 whole entry): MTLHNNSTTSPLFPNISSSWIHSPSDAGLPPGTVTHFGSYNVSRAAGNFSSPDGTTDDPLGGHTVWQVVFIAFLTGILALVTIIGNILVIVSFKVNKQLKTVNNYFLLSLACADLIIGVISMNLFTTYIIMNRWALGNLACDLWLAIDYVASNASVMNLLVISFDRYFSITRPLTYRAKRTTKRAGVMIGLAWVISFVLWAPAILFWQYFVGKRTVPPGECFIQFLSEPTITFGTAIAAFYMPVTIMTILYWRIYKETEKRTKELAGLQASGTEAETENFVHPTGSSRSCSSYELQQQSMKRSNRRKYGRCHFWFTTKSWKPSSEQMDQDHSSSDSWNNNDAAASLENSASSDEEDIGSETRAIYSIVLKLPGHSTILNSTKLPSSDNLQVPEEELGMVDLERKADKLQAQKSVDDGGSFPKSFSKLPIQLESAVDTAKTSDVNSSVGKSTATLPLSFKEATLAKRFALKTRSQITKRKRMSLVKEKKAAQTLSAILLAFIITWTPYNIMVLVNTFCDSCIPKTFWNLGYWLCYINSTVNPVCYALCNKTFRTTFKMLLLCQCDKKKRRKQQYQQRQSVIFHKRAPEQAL
# experiment: biochemical
# Assay type: binding
# condition_details: M3 binding IC50
pIC50: −log10 of the molar value.
Readings of pIC50 for the listed compounds

Kindly state the measured pIC50 obtained for `O=C(C[N+]12CCC(CC1)[C@@H](OC(=O)C1(c3ccccc3)CCCCCC1)C2)Nc1noc2ccccc12` with human muscarinic acetylcholine M3 receptor (Homo sapiens, UniProt P20309).
> 8.70

Kindly state the measured pIC50 obtained for `Cc1ccc(NC(=O)C[N+]23CCC(CC2)[C@@H](OC(=O)C2(c4ccccc4)CCCCCC2)C3)nn1` with human muscarinic acetylcholine M3 receptor (Homo sapiens, UniProt P20309).
> 8.70

Kindly state the measured pIC50 obtained for `O=C(O[C@H]1C[N+]2(CCc3cnccn3)CCC1CC2)C1(c2ccccc2)CCCCCC1` with human muscarinic acetylcholine M3 receptor (Homo sapiens, UniProt P20309).
8.00 to 8.70

Kindly state the measured pIC50 obtained for `O=C(C[N+]12CCC(CC1)[C@@H](OC(=O)C1(c3ccccc3)CCCCCC1)C2)Nc1ccncc1F` with human muscarinic acetylcholine M3 receptor (Homo sapiens, UniProt P20309).
> 8.70

* * *

Readings of fraction unbound for the listed compounds
# experiment: in vitro
# condition_details: human, plasma, pH 7.4
Output spec: single numeric token, no unit.

INSERT INTO assay_data (compound, experimental_result) VALUES
  ('Cc1cc(NC(=O)C[N+]23CCC(CC2)[C@@H](OC(=O)C2(c4ccccc4)CCCCCC2)C3)ccn1 [Example 20]', 0.018);

Need fraction unbound of O=C(C[N+]12CCC(CC1)[C@@H](OC(=O)C1(c3ccccc3)CCCCCC1)C2)Nc1ccccn1 [Example 15] , thanks.
0.039

Need fraction unbound of O=C(C[N+]12CCC(CC1)[C@@H](OC(=O)C1(c3ccccc3)CCCCCC1)C2)Nc1ccc(F)cn1 [Example 17] , thanks.
0.024

Need fraction unbound of O=C(C[N+]12CCC(CC1)[C@@H](OC(=O)C1(c3cccs3)CCCCCC1)C2)Nc1cnccn1 [Example 11] , thanks.
0.048

Need fraction unbound of O=C(C[N+]12CCC(CC1)[C@@H](OC(=O)C1(c3cccc(F)c3)CCCCCC1)C2)Nc1ccon1 [Example 13] , thanks.
0.068

Need fraction unbound of O=C(C[N+]12CCC(CC1)[C@@H](OC(=O)C1(c3ccccc3)CCCCCC1)C2)Nc1ccccc1 [Example 21] , thanks.
0.006

* * *

Readings of pIC50 for the listed compounds
# tested_system: human muscarinic acetylcholine M3 receptor (Homo sapiens)
# Construct: expressed in transfected cells; host or cells: CHO-K1 (Chinese Hamster Ovary) cell membranes
# experiment: biochemical
# Assay type: binding
# condition_details: M3 binding IC50
pIC50: −log10 of the molar value. Where a name gives a salt, the structure may show the parent alone.

INSERT INTO assay_data (compound, experimental_result) VALUES
  ('O=C(NCCC[N+]12CCC(CC1)[C@@H](OC(=O)C1(c3ccccc3)CCCCCC1)C2)c1ccccn1', '8.00 to 8.70'),
  ('O=C(C[N+]12CCC(CC1)[C@@H](OC(=O)C1(c3ccccc3)CCCCCC1)C2)Nc1cccc(C(F)(F)F)n1', '8.00 to 8.70'),
  ('CN(C(=O)C[N+]12CCC(CC1)[C@@H](OC(=O)C1(c3ccccc3)CCCCCC1)C2)c1ccccc1 [Example 39, formate]', '8.00 to 8.70'),
  ('O=C(C[N+]12CCC(CC1)[C@@H](OC(=O)C1(c3cccs3)CCCCCC1)C2)Nc1cccnn1', '> 8.70');

Need pIC50 of `O=C(C[N+]12CCC(CC1)[C@@H](OC(=O)C1(c3cccs3)CCCCCC1)C2)Nc1noc2ccccc12` , thanks.
> 8.70

Need pIC50 of `O=C(C[N+]12CCC(CC1)[C@@H](OC(=O)C1(c3cccs3)CCCCCC1)C2)Nc1cccc(F)c1` , thanks.
> 8.70

Need pIC50 of `Cc1cc(NC(=O)C[N+]23CCC(CC2)[C@@H](OC(=O)C2(c4cccs4)CCCCCC2)C3)no1` , thanks.
> 8.70

Need pIC50 of `N#Cc1ccc(NC(=O)C[N+]23CCC(CC2)[C@@H](OC(=O)C2(c4ccccc4)CCCCCC2)C3)nc1` , thanks.
8.00 to 8.70

Need pIC50 of `O=C(C[N+]12CCC(CC1)[C@@H](OC(=O)C1(c3ccccc3)CCCCCC1)C2)Nc1cc(F)ccc1F` , thanks.
8.00 to 8.70

Need pIC50 of `O=C(NCC[N+]12CCC(CC1)[C@@H](OC(=O)C1(c3ccccc3)CCCCCC1)C2)c1cnccn1` , thanks.
8.00 to 8.70

Need pIC50 of `Cc1cc(NC(=O)C[N+]23CCC(CC2)[C@@H](OC(=O)C2(c4ccccc4)CCCCCC2)C3)ncn1` , thanks.
8.00 to 8.70

Need pIC50 of `N#Cc1ccc(OCCC[N+]23CCC(CC2)[C@@H](OC(=O)C2(c4ccccc4)CCCCCC2)C3)cc1` , thanks.
> 8.70

Need pIC50 of O=C(O[C@@H]1C[N+]2(CCCOc3ccccc3)CCC1CC2)C1(c2ccccc2)CCCCCC1 [Example 33, formate] , thanks.
8.00 to 8.70

Need pIC50 of `O=C(C[N+]12CCC(CC1)[C@@H](OC(=O)C1(c3ccccc3)CCCCCC1)C2)Nc1ccc(C(F)(F)F)nn1` , thanks.
8.00 to 8.70

Need pIC50 of `O=C(C[N+]12CCC(CC1)[C@@H](OC(=O)C1(c3ccccc3)CCCCCC1)C2)Nc1cccc(F)c1F` , thanks.
> 8.70
